System: Human venous whole blood
ASSAY_SUMMARY: Human whole blood IFN-γ assay;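 also: blood from healthy donors exposed to compound for 1 h before stimulation with anti-CD3 and anti-CD28 at 1 µg/mL each, IFN-γ quantified in supernatant by AlphaLISA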
Assay type: cell-based
CONDITION_DETAILS: Homo sapiens, 24 h, human whole blood, anti-CD3 plus anti-CD28, 24 hours; 3 μM reference compound = 100% activation; read-out: INFg Whole Blood Normalized Agonist EC50
Listing: pEC50 of selected compounds
Bear in mind: pEC50 is minus log10 of a mol/L concentration; give just that figure.

Please state recorded pEC50 (tested on Human venous whole blood) of C[C@@H]1CN(c2c(C#N)c(=O)n(C)c3ccc(C#N)nc23)CCN1C(c1ccc(F)cc1)c1ccc(C#N)cc1 (single isomer, unassigned)
5.52

# value lookup — system Human venous whole blood, readout pEC50, item C[C@@H]1CN(c2cc(=O)n(C)c3ccc(C#N)nc23)[C@@H](C)CN1C(c1ccc(F)cc1)c1ncno1 (stereo partly drawn)
4.74

Shifting focus to the compound that follows.
# query: pEC50 | item `Cc1ccc(C(c2ccc(C)cc2)N2C[C@H](C)N(c3c(C#N)c(=O)n(C)c4ccc(C#N)nc34)C[C@H]2C)cc1` | system: Human venous whole blood
6.16

* * *

TEST_TARGET: human DGKα (Homo sapiens, UniProt P23743)
Construct: TVMV protease cleavage site (C); Hexa-His (C); made in house; host or cells: Sf9 insect cells (baculovirus, Bac-to-Bac)
Sequence (P23743 with tags, fused parts or gaps): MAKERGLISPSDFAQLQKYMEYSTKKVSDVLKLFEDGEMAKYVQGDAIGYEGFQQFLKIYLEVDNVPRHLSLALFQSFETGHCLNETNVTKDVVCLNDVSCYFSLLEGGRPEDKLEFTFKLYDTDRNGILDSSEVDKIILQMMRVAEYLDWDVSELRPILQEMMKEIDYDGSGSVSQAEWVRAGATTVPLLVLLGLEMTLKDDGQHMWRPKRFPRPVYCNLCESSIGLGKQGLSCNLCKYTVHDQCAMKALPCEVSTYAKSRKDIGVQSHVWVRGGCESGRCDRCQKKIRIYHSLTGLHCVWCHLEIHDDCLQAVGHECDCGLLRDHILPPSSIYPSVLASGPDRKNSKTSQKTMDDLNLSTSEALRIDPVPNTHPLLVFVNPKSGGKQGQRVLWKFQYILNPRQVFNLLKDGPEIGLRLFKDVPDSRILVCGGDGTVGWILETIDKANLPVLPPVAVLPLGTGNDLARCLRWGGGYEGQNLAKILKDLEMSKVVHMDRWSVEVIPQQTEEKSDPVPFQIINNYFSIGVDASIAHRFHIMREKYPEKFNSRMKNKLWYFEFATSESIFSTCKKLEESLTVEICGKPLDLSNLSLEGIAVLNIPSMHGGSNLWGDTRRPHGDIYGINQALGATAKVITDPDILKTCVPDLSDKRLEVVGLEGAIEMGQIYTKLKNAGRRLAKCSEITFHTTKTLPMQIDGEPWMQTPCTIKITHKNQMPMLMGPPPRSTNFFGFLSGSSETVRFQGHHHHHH
ASSAY_SUMMARY: DGKα LIPGLO assay (extruded liposome substrate), in vitro DGK inhibition
Format: biochemical
CONDITION_DETAILS: liposome (LIPGLO) assay; read-out: DGKa LIPGLO IC50
IC50 strictly under 700 nM means MET; at 700 nM or over means NOT MET.

Is it true that IC50 reported for COCCOc1cc(C(C)N2C[C@H](C)N(c3cc(=O)n(C)c4ccc(C#N)nc34)C[C@H]2C)ccc1C#N (single isomer, unassigned) [Example 1320] is less than 700 nM?
NOT MET

API: query returns whether the compound falls strictly under 700 nM in IC50. Query: C[C@@H]1CN(c2c(C#N)c(=O)n(C)c3ccc(C#N)nc23)CCN1C(c1ccc(F)cc1)c1ccnc(C(C)(C)C)n1 (stereo partly drawn) [Example 321]
NOT MET

Determine if Cn1c(=O)cc(N2CCN(C(c3ccc(F)cc3)c3ccc(F)cc3)CC2CF)c2nc(C#N)ccc21 (single isomer, unassigned) [Example 150] shows IC50 strictly lower than 700 nM.
NOT MET

Could you please tell me whether IC50 recorded for CC(c1ccc(OC(F)(F)F)cc1)N1C[C@H](C)N(c2cc(=O)n(C)c3ccc(C#N)nc23)C[C@H]1CC#N (single isomer, unassigned) [Example 1411] is less than 700 nM?
MET

Hello, I'm reviewing records and need to know if IC50 of CC[C@@H]1CN(c2cc(=O)n(C)c3ccc(C#N)nc23)[C@@H](C)CN1C(C)c1ccc(OC(F)F)cc1 (stereo partly drawn) [Example 1343] is below 700 nM. Could you check?
MET

* * *

TEST_TARGET: human DGKα (Homo sapiens, UniProt P23743)
Construct: TVMV protease cleavage site (C); Hexa-His (C); made in house; host or cells: Sf9 insect cells (baculovirus, Bac-to-Bac)
ASSAY_SUMMARY: DGKα LIPGLO assay (extruded liposome substrate), in vitro DGK inhibition
Assay type: biochemical
CONDITION_DETAILS: liposome (LIPGLO) assay; read-out: DGKa LIPGLO IC50
pIC50: −log10 of the molar value.
Criterion: pIC50 meeting or surpassing 7. Met: Met. Not met: Not met.

Quick check, pIC50 >= 7? CCC(c1ccc(F)c(F)c1)N1C[C@H](C)N(c2cc(=O)n(C)c3ccc(C#N)nc23)C[C@H]1C (single isomer, unassigned) [Example 344]
Not met

Answer whether pIC50 of Cn1c(=O)cc(N2CCN(C(c3ccc(F)cc3)c3ccc(F)cc3)C(C#N)C2)c2nc(C#N)ccc21 (single isomer, unassigned) [Example 45] is greater than or equal to 7.
Not met

Please tell me: is the compound CCOc1ncccc1C(c1ccc(F)cc1)N1C[C@H](C)N(c2cc(=O)n(C)c3ccc(C#N)nc23)C[C@H]1C (single isomer, unassigned) [Example 206] at or over 7 in terms of pIC50?
Not met

Others:
Determine whether measured pIC50 meets or exceeds 7 for `CC[C@@H]1CN(c2cc(=O)n(C)c3ccc(C#N)nc23)[C@@H](C)CN1C(c1ccc(C)cc1)c1ccc(C)cc1`
Not met

Textbook exercise: given the entry CC[C@H]1CN(C(C)c2ccc(OC(F)(F)F)cc2F)[C@H](CC)CN1c1cc(=O)n(C)c2ccc(C#N)nc12 (single isomer, unassigned) [Example 1371] , state whether its pIC50 is greater than or equal to 7.
Met

// data source = patent US10669272B2
